- Target entity: HLA-A*02:01 (Homo sapiens, UniProt P04439, D140Y/D185E/D98H/E176V/E277Q/G131W/G231S/I119V/I121R/I166T/I218V/L300P/L318F/N151K/N90K/P208A/P217A/Q86G/Q94H/R138H/R169H/T345S)
- Assay method text: MHC binding assay (UV-ligand exchange, beta2m ELISA, peptide exchange yield)
- Reported conditions: binding to HLA-A*02:01
Recorded metric: Peptide exchange (MHC class I binding score, peptide exchange yield)

1. 183 (TLQEVVTGV; listed as Homo sapiens) [compound 183]
“+++” (≥50 = +++)
2. 148 (RLLENMTEVV; listed as Homo sapiens) [compound 148]
“+++” (≥50 = +++)
3. 75 (EMIENIQSV; listed as Homo sapiens) [compound 75]
“++” (≥20% = ++)
4. 134 (GVAGGSILKGV; listed as Homo sapiens) [compound 134]
“++++” (≥75% = ++++)
5. 76 (YLIGEKQHYL; listed as Homo sapiens) [compound 76]
“+++” (≥50 = +++)
6. 164 (KMLDEILLQL; listed as Homo sapiens) [compound 164]
“++++” (≥75% = ++++)
7. 5 (WLFDDGGLTL; listed as Homo sapiens) [compound 5]
“++++” (≥75% = ++++)
8. 2 (ALLPRYFFL; listed as Homo sapiens) [compound 2]
“++” (≥20% = ++)

Let's switch to this substance now.
Tell me the measured Peptide exchange (MHC class I binding score, peptide exchange yield) of 123 (KTLERSYLL; listed as Homo sapiens) [compound 123] , please.
“++” (≥20% = ++)
